test: in vitro
Endpoint name: viability at 4 days, 30 μM (%)

[[record]]
cpd_smiles = "C=C(C)[C@@H]1CC[C@]2(C(=O)N3CCC[C@H]3c3nc(-c4ccc(OC)c(F)c4)c[nH]3)CC[C@]3(C)[C@H](CC[C@@H]4[C@@]5(C)CC[C@H](OC(=O)[C@H]6C[C@@H](C(=O)O)C6(C)C)C(C)(C)[C@@H]5CC[C@]43C)[C@@H]12"
endpoint_name = "viability at 4 days, 30 μM"
unit_annotation = "%"
reading = 32

[[record]]
cpd_smiles = "C=C(C)[C@@H]1CC[C@]2(C(=O)N3CCC[C@H]3c3ncc(-c4ccc(C)c(F)c4)[nH]3)CC[C@]3(C)[C@H](CC[C@@H]4[C@@]5(C)CC[C@H](OC(=O)[C@H]6C[C@@H](C(=O)O)C6(C)C)C(C)(C)[C@@H]5CC[C@]43C)[C@@H]12"
endpoint_name = "viability at 4 days, 30 μM"
unit_annotation = "%"
reading = 31

[[record]]
cpd_smiles = "C=C(C)[C@@H]1CC[C@]2(C(=O)N3CCC[C@H]3c3ncc(-c4ccc(C)c(F)c4)[nH]3)CC[C@]3(C)[C@H](CC[C@@H]4[C@@]5(C)CC[C@H](OC(=O)CC(C)(C)C(=O)O)C(C)(C)[C@@H]5CC[C@]43C)[C@@H]12"
endpoint_name = "viability at 4 days, 30 μM"
unit_annotation = "%"
reading = 48

[[record]]
cpd_smiles = "COCCO[C@@H]1C[C@@H](c2nc(-c3cccc(F)c3)c[nH]2)N(C(=O)[C@]23CC[C@@H](C4(C)CC4)[C@@H]2[C@H]2CC[C@@H]4[C@@]5(C)CC[C@H](OC(=O)[C@H]6C[C@@H](C(=O)O)C6(C)C)C(C)(C)[C@@H]5CC[C@@]4(C)[C@]2(C)CC3)C1"
endpoint_name = "viability at 4 days, 30 μM"
unit_annotation = "%"
reading = 16

[[record]]
cpd_smiles = "C=C(C)[C@@H]1CC[C@]2(C(=O)N3CCC[C@H]3c3ncc(-c4ccc(OCC)cc4)[nH]3)CC[C@]3(C)[C@H](CC[C@@H]4[C@@]5(C)CC[C@H](OC(=O)[C@H]6C[C@@H](C(=O)O)C6(C)C)C(C)(C)[C@@H]5CC[C@]43C)[C@@H]12"
endpoint_name = "viability at 4 days, 30 μM"
unit_annotation = "%"
reading = 100


====

assay: Single dose oral pharmacokinetic study; type: in vivo; conditions: mouse, mice, 30 mg/kg, plasma, read-out: Mice oral PK @30 mg/kg Cmax
Endpoint name: Cmax

[[record]]
compound = "CC(C)(CC(=O)O)CC(=O)O[C@H]1CC[C@]2(C)[C@H]3CC[C@@H]4[C@H]5[C@H](C6(C)CC6)CC[C@]5(C(=O)N5CCC[C@H]5c5ncc(-c6ccc(F)cc6)[nH]5)CC[C@@]4(C)[C@]3(C)CC[C@H]2C1(C)C [Compound 70]"
endpoint_name = "Cmax"
reading = "10000 ng/mL"

[[record]]
compound = "C=C(C)[C@@H]1CC[C@]2(C(=O)N3CCC[C@H]3c3ncc(-c4ccccc4)[nH]3)CC[C@]3(C)[C@H](CC[C@@H]4[C@@]5(C)CC[C@H](OC(=O)C[C@H]6C[C@@H](C(=O)O)C6(C)C)C(C)(C)[C@@H]5CC[C@]43C)[C@@H]12 [Compound 21]"
endpoint_name = "Cmax"
reading = "13000 ng/mL"

[[record]]
compound = "C=C(C)[C@@H]1CC[C@]2(C(=O)N3CCC[C@H]3c3ncc(-c4cccc(F)c4)[nH]3)CC[C@]3(C)[C@H](CC[C@@H]4[C@@]5(C)CC[C@H](OC(=O)[C@H]6C[C@@H](C(=O)O)C6(C)C)C(C)(C)[C@@H]5CC[C@]43C)[C@@H]12 [Compound 4]"
endpoint_name = "Cmax"
reading = "14800 ng/mL"

[[record]]
compound = "C=C(C)[C@@H]1CC[C@]2(C(=O)N3CCC[C@H]3c3nc(-c4cccc(Cl)c4)c[nH]3)CC[C@]3(C)[C@H](CC[C@@H]4[C@@]5(C)CC[C@H](OC(=O)[C@H]6C[C@@H](C(=O)O)C6(C)C)C(C)(C)[C@@H]5CC[C@]43C)[C@@H]12 [Compound 28]"
endpoint_name = "Cmax"
reading = "10000 ng/mL"

